tested on: ATP; test: switch fluorescence ratio, 500 uM ATP over buffer (Cy3 cluster intensity, sum of 5 cycles each) (fold (ratio)); higher = stronger signal-on switching upon ATP binding; sequences stand for … in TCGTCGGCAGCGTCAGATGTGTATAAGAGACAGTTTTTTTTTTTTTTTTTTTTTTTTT…TC; conditions: aptamer strand: ATP DNA aptamer (quencher-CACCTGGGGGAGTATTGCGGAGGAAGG + anchor), 100 nM annealed; ATP concentration: 500 uM;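 also: ATP exposure 15 min at 22 °C before imaging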
OBSERVATION_TYPE: switch fluorescence ratio
Lab note: record the figure alone, no unit after it.

Solved cases (8 shown):
| MONOMER_SEQUENCE | switch fluorescence ratio |
| --- | --- |
| GCGCAGGTAA | 1.04 |
| TTTATTTTAT | 1.02 |
| GGTGAAAGGA | 0.979 |
| TACTCTGGTG | 1.43 |
| GAGTTGTCGA | 0.994 |
| ATGTATTCAG | 0.967 |
| AGTCATAAAA | 1.01 |
| GAGATGGAAG | 0.993 |

query: Look up switch fluorescence ratio for this sequence: TCTTAAGGGA
result: 0.979
